meta.source: paper PMC12006963

We begin with a simple list: items and their reported Cmax at 14 days.
# Test protocol: Rat 14-day exploratory toxicology and toxicokinetic study
# Format: in vivo
# Experimental context: rat 14-day study, day 14, 300 mg/kg PO of 5; plasma

>  <Compound>
[2H]C1([2H])c2ncccc2C(=O)N1Cc1c(F)cc(-c2cccc3nn(C([2H])([2H])[2H])cc23)cc1F

>  <Cmax at 14 days [ng/mL]>
22200

$$$$
>  <Compound>
[2H]C1(O)c2ncccc2C(=O)N1Cc1c(F)cc(-c2cccc3nn(C([2H])([2H])[2H])cc23)cc1F (centres unmarked)

>  <Cmax at 14 days [ng/mL]>
6740

$$$$

* * *

# Test protocol: Plasma protein binding, equilibrium dialysis (human)
# Format: in vitro ADME
# Experimental context: pH 7.4, read-out: fu,plasma

>  <Compound>
[2H]C1([2H])c2ncccc2C(=O)N1Cc1c(F)cc(-c2cccc3nn(C([2H])([2H])[2H])cc23)cc1F [compound 5]

>  <fraction unbound at 6 h, 5 µM>
0.036

$$$$
>  <Compound>
Cn1cc2c(-c3cc(F)c(CN4Cc5ncccc5C4=O)c(F)c3)cccc2n1 [compound 1]

>  <fraction unbound at 6 h, 5 µM>
0.034

$$$$
>  <Compound>
[2H]C1([2H])c2ncccc2C(=O)N1Cc1c(F)cc(-c2cccc3nn(C)cc23)cc1F [compound 3]

>  <fraction unbound at 6 h, 5 µM>
0.051

$$$$

* * *

# Test protocol: Brain to plasma ratio in rat
# Format: in vivo
# Experimental context: male, Sprague-Dawley, brain and plasma, intravenous, 0.2 mg/kg; rat (SD); brain/plasma
We begin with a simple list: items and their reported Kp at 15 min.

>  <Compound>
Cn1cc2c(-c3cc(F)c(CN4Cc5ncccc5C4=O)c(F)c3)cccc2n1 [compound 1]

>  <Kp at 15 min>
0.77

$$$$
>  <Compound>
[2H]C1([2H])c2ncccc2C(=O)N1Cc1c(F)cc(-c2cccc3nn(C)cc23)cc1F [compound 3]

>  <Kp at 15 min>
0.63

$$$$
>  <Compound>
[2H]C1([2H])c2ncccc2C(=O)N1Cc1c(F)cc(-c2cccc3nn(C([2H])([2H])[2H])cc23)cc1F [compound 5]

>  <Kp at 15 min>
1.1

$$$$

* * *

# Test protocol: In vivo IV/PO pharmacokinetics, rat
# Experimental context: Sprague-Dawley, plasma, 1 mg/kg; rat (SD); dose iv/po mg/kg: 1 1/3, 3 1/10, 5 1/10; read-out: elimination t1/2 (converted)
Quantity kind: half-life (h)

>  <Smiles data>
[2H]C1([2H])c2ncccc2C(=O)N1Cc1c(F)cc(-c2cccc3nn(C([2H])([2H])[2H])cc23)cc1F

>  <Result number>
3.6

$$$$
>  <Smiles data>
[2H]C1([2H])c2ncccc2C(=O)N1Cc1c(F)cc(-c2cccc3nn(C)cc23)cc1F

>  <Result number>
3

$$$$
>  <Smiles data>
Cn1cc2c(-c3cc(F)c(CN4Cc5ncccc5C4=O)c(F)c3)cccc2n1

>  <Result number>
3

$$$$

* * *

We begin with a simple list: items and their reported Cmax at 14 days.
# Test protocol: Rat 14-day exploratory toxicology and toxicokinetic study
# Format: in vivo
# Experimental context: rat 14-day study, day 14, 1500 mg/kg PO of 5; plasma

>  <Molecule>
[2H]C1(O)c2ncccc2C(=O)N1Cc1c(F)cc(-c2cccc3nn(C([2H])([2H])[2H])cc23)cc1F (centres unmarked)

>  <Cmax at 14 days [ng/mL]>
9890

$$$$
>  <Molecule>
[2H]C1([2H])c2ncccc2C(=O)N1Cc1c(F)cc(-c2cccc3nn(C([2H])([2H])[2H])cc23)cc1F

>  <Cmax at 14 days [ng/mL]>
30700

$$$$
